system-under-test: UGT1A3 (Homo sapiens, UniProt P35503)
Construct: purchased Corning Biosciences
Sequence (P35503 29-534): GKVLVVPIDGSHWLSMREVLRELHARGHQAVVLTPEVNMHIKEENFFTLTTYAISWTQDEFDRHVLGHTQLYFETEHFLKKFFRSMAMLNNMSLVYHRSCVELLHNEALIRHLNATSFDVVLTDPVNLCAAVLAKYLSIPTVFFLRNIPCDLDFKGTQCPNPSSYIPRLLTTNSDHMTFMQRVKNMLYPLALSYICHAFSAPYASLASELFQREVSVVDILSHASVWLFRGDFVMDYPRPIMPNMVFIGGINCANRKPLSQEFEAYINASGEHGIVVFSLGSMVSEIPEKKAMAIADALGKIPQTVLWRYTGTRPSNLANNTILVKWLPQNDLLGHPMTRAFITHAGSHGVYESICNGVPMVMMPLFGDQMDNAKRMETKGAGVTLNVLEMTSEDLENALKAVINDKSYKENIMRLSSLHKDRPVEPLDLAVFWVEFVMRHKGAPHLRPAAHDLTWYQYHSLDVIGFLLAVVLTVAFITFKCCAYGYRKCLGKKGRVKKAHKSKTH
measurement-notes: Estrogen glucuronidation kinetics by expressed UGT1A3
Format: in vitro ADME
stated-conditions: human, recombinant (expressed) UGT1A3, pH 7.4, 3-O-glucuronide formation, read-out: CL int or CL max
measured-quantity: microsomal CLint (µL/min/mg)
Answer with a number only, understood to be in µL/min/mg.

## Input Which microsomal CLint value belongs to C[C@]12CC[C@@H]3c4ccc(O)cc4CC[C@H]3[C@@H]1CCC2=O [E1, Estrone] ?
## Output 11.7

====

system-under-test: UGT1A10 (Homo sapiens, UniProt Q9HAW8)
measurement-notes: Inhibition of UGT1A10 (4-methylumbelliferone-O-glucuronidation)
Description: The final volume of solvent in incubations was 1%. In addition, emodin, atazanavir, and diclofenac were considered as positive controls for UGT1A10, UGT1A1, and UGT2B7, respectively. Competitive inhibition, non-competitive inhibition, and mixed-type inhibition models were used to estimate the Ki values by nonlinear regression based on Eqs 6–8, respectively.
Flag rule - Ki less than 2000 nM flags rule met; the remaining entries get rule not met.

Recorded results for 2 compounds are shown here.
compound=CC(C)=CCc1c(O)ccc(C(=O)/C=C/c2ccc(O)cc2)c1O classification="rule met"
compound=CC(C)=CCC/C(C)=C/Cc1cc(-c2coc3cc(O)ccc3c2=O)ccc1O classification="rule met"

## Input State whether 2000 nM exceeds Ki recorded for `CC(C)=CCc1cc2c(cc1O)O[C@H](c1ccc(O)cc1)CC2=O` .
## Output rule not met

## Input State whether 2000 nM exceeds Ki recorded for `CC(C)=CCc1c(O)ccc2c1O[C@H](c1ccc(O)cc1)CC2=O` .
## Output rule met

## Input State whether 2000 nM exceeds Ki recorded for COc1ccc(-c2oc3c(CC=C(C)C)c(O[C@@H]4O[C@H](CO)[C@@H](O)[C@H](O)[C@H]4O)cc(O)c3c(=O)c2O)cc1 [Icariside I, icariside I] .
## Output rule met

## Input State whether 2000 nM exceeds Ki recorded for `COc1ccc(-c2oc3c(CC=C(C)C)c(O[C@@H]4O[C@H](CO)[C@@H](O)[C@H](O)[C@H]4O)cc(O)c3c(=O)c2O[C@@H]2O[C@@H](C)[C@H](O)[C@@H](O)[C@H]2O)cc1` .
## Output rule not met

## Input State whether 2000 nM exceeds Ki recorded for `CC(C)=CCc1cc(-c2coc3cc(O)ccc3c2=O)ccc1O` .
## Output rule not met

====

Here the recorded activity at 10 µM is given for each entry.
system-under-test: UGT1A10 (Homo sapiens)
Sequence (Q9HAW8 26-530): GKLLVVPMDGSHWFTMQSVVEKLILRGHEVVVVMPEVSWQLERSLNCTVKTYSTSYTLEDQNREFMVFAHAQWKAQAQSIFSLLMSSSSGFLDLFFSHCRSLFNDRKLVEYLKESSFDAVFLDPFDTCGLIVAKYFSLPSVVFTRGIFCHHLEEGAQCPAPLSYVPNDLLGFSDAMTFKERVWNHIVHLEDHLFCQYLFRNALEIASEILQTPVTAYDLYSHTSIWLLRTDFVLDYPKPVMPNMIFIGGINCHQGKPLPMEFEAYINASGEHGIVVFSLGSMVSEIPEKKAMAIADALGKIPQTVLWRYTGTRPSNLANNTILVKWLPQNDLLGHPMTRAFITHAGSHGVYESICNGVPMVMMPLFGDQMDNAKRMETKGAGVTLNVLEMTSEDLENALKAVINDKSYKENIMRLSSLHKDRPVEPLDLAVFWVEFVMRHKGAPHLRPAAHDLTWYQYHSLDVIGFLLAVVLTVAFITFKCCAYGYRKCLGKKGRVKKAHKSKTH
measurement-notes: Inhibition of UGT1A10 (4-methylumbelliferone-O-glucuronidation)
stated-conditions: human, expressed human UGT1A10 enzyme, probe 4-methylumbelliferone (4-MU)
Answer with a number only, understood to be in %.

Here are 3 compounds together with their reported answers.
compound=COc1ccc(-c2oc3c(CC=C(C)C)c(O[C@@H]4O[C@H](CO)[C@@H](O)[C@H](O)[C@H]4O)cc(O)c3c(=O)c2O[C@@H]2O[C@@H](C)[C@H](O)[C@@H](O)[C@H]2O)cc1 unit_label=% measured_result=37.3
compound=CC(C)=CCc1c(O)ccc(C(=O)/C=C/c2ccc(O)cc2)c1O unit_label=% measured_result=8.61
compound=CC(C)=CCC/C(C)=C/Cc1cc(-c2coc3cc(O)ccc3c2=O)ccc1O unit_label=% measured_result=13.9

## Input Which activity at 10 µM value belongs to COc1ccc(-c2oc3c(CC=C(C)C)c(O[C@@H]4O[C@H](CO)[C@@H](O)[C@H](O)[C@H]4O)cc(O)c3c(=O)c2O)cc1 [Icariside I, icariside I] ?
## Output 26.5

## Input Which activity at 10 µM value belongs to Cc1cc(O)c2c(c1)C(=O)c1cc(O)cc(O)c1C2=O [emodin, reference compound] ?
## Output 52.4

## Input Which activity at 10 µM value belongs to `CC(C)=CCc1cc(-c2coc3cc(O)ccc3c2=O)ccc1O` ?
## Output 31.1

## Input Which activity at 10 µM value belongs to `CC(C)=CCc1c(O)ccc2c1O[C@H](c1ccc(O)cc1)CC2=O` ?
## Output 20.4

## Input Which activity at 10 µM value belongs to `CC(C)=CCc1cc2c(cc1O)O[C@H](c1ccc(O)cc1)CC2=O` ?
## Output 35.6

====

Here the recorded activity at 10 µM is given for each entry.
system-under-test: UGT2B7 (Homo sapiens, UniProt P16662)
Sequence (P16662 24-529): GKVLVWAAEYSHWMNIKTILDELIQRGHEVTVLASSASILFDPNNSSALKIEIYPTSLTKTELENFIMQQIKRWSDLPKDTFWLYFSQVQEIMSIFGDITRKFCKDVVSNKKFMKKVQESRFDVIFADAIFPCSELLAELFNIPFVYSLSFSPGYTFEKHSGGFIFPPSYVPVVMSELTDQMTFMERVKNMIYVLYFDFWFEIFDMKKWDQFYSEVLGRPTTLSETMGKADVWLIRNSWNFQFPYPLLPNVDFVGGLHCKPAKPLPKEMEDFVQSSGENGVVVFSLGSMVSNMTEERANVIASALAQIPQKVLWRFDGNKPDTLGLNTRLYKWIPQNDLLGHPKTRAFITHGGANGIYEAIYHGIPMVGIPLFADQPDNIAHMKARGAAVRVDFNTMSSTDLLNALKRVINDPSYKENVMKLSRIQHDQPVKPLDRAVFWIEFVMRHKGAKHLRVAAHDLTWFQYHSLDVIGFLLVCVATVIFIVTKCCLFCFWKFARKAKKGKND
measurement-notes: Inhibition of UGT2B7 (zidovudine-N-glucuronidation)
stated-conditions: human, UGT2B7 enzyme (optimized UGT2B7 incubation system), probe zidovudine (AZT)
Answer with a number only, understood to be in %.

input_smiles=CC(C)=CCc1c(O)ccc2c1O[C@H](c1ccc(O)cc1)CC2=O measured_result=0
input_smiles=CC(C)=CCc1cc(-c2coc3cc(O)ccc3c2=O)ccc1O measured_result=10.2

Next, consider the following compound.
## Input Which activity at 10 µM value belongs to `CC(C)=CCc1cc(C(=O)/C=C/c2ccc(O)cc2)c(O)cc1O` ?
## Output 27.2
